Hey, just so you know, these numbers are from patent US11414416B1.

biological target: Nanoluciferase-BRD9 fusion protein (Homo sapiens (Human), UniProt Q9H8M2); assay: SYO1 BRD9 NanoLuc degradation assay; assay type: cell-based; conditions: Table 5A; SYO-1 cells expressing 3×FLAG-NLuc-BRD9, 6 hours
Sequence (Q9H8M2 whole entry, the tested form may be a part): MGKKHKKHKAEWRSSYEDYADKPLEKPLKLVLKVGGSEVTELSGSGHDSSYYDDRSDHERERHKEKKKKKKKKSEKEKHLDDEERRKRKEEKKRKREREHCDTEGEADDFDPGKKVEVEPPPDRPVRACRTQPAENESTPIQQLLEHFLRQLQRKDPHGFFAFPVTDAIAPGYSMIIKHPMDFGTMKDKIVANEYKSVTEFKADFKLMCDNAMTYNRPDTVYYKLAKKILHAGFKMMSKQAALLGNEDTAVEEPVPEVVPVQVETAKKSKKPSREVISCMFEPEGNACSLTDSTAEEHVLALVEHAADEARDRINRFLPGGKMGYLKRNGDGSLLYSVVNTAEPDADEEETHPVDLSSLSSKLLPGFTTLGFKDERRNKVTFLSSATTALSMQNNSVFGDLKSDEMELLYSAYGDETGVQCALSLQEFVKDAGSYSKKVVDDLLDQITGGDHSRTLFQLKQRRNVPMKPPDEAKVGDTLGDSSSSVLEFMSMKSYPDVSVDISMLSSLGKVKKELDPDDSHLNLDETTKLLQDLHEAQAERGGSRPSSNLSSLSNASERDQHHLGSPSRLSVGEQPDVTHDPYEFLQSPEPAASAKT
Entries and their measured IC50 follow.

>  <Compound>
COc1cc(-c2cn(C)c(=O)c3cnccc23)cc(OC)c1CN1CCN(C(=O)C2CC2CNC(=O)COc2ccc3c(c2)C(=O)N(C2CCC(=O)NC2=O)C3=O)CC1 (stereo not drawn)

>  <IC50>
0.1 to 1 µM

$$$$
>  <Compound>
COc1cc(-c2cn(C)c(=O)c3cnccc23)cc(OC)c1CN(C)CC12CC(C(=O)NCCCCCNc3cccc4c3C(=O)N(C3CCC(=O)NC3=O)C4=O)(C1)C2 (stereo not drawn)

>  <IC50>
< 0.01 µM

$$$$
>  <Compound>
COc1cc(-c2cn(C)c(=O)c3cnccc23)cc(OC)c1CN1CCC2(CCN(C(=O)CCOCCOc3cccc4c3C(=O)N(C3CCC(=O)NC3=O)C4=O)CC2)C1 (stereo not drawn)

>  <IC50>
< 0.01 µM

$$$$

Prompt: Fill in the blank: the reported IC50 of COc1cc(-c2cn(C)c(=O)c3cnccc23)cc(OC)c1CN1CC(S(=O)(=O)NCCOCCOCCNc2cccc3c2C(=O)N(C2CCC(=O)NC2=O)C3=O)C1 (stereo not drawn) is ____.
Completion: < 0.01 µM

Prompt: Now the compound COc1cc(-c2cn(C)c(=O)c3cnccc23)cc(OC)c1CN1CCC2(CCN(C(=O)CCOCCOc3ccc4c(c3)C(=O)N(C3CCC(=O)NC3=O)C4=O)C2)C1 (stereo not drawn)
Completion: 0.01 to 0.1 µM

Prompt: Now the compound COc1cc(-c2cn(C)c(=O)c3cnccc23)cc(OC)c1CN1CCN(C(=O)C2CC2CNC(=O)COc2cccc3c2C(=O)N(C2CCC(=O)NC2=O)C3=O)CC1 (stereo not drawn)
Completion: 0.1 to 1 µM

Prompt: Now the compound COc1cc(-c2cn(C)c(=O)c3cnccc23)cc(OC)c1CN(C)C(=O)CCCCN1CCOC2(CCN(c3ccc4c(c3)C(=O)N(C3CCC(=O)NC3=O)C4=O)CC2)C1 (stereo not drawn)
Completion: < 0.01 µM

Prompt: Now the compound COc1cc(-c2cn(C)c(=O)c3cnccc23)cc(OC)c1CN1CC[C@H]1C(=O)NCCCCCCCCNc1cccc2c1C(=O)N(C1CCC(=O)NC1=O)C2=O (stereo partly drawn)
Completion: < 0.01 µM
